- Assayed system: Transcription factor E2F1 (Homo sapiens)
- Measurement notes: ATG_E2F_CIS: Attagene CIS-FACTORIAL HepG2 Assay for human E2F Transcription Factor 1 (AID 2282935)
- Condition context: HepG2 Attagene cis-reporter, E2F reporter RNA transcripts; actives raise or lower the signal
Active and inactive are the calls of the source. How the source made its calls: active means hit-call score of the fitted dose curve at least 0.9, where 1 is the maximum; inactive means score below 0.9.
Recorded metric: outcome

compound="CCCCC(CC)C(=O)OCCOCCOCCOC(=O)C(CC)CCCC (stereo not drawn)" reported_measurement=inactive
compound=CCCCCOC(C)=O reported_measurement=inactive
compound=CCCCCCCCN(C)C reported_measurement=inactive

====

- Measurement notes: APR_HepG2_NuclearSize_72hr: Apredica 72-hour HepG2 Assay for Nuclear Size (AID 2282925)
- Condition context: high-content imaging, actives raise or lower the signal
The source made the active and inactive calls. How the source made its calls: active means hit-call score of the fitted dose curve at least 0.9, where 1 is the maximum; inactive means score below 0.9.
Recorded metric: AC50

Past entries and their recorded results:
molecule_smiles=CCCCN1C(=O)[C@@H]([C@H](O)C2CCCCC2)NC(=O)C12CCN(Cc1ccc(Oc3ccc(C(=O)O)cc3)cc1)CC2 reported_measurement=inactive
molecule_smiles=CCCOc1ccc(S(=O)(=O)N2CCN(CC)CC2)cc1-c1nc2c(CC)n(Cc3ccccn3)nc2c(=O)[nH]1 reported_measurement=inactive
molecule_smiles=CCCCCOC(C)=O reported_measurement=inactive
molecule_smiles=OCCNCCO reported_measurement=inactive

Consider the record given below.
Req: Indicate the recorded AC50 value for this molecule: `C=CCc1cc(S(=O)(=O)c2ccc(O)c(CC=C)c2)ccc1O`
Resp: 79.1 µM (active)
